Tested on: Danio rerio larvae (5 dpf)
Experiment: difference in activity during first hour vs DMSO (percentage points); higher = more activity than DMSO
Details: 10 µM; exposure time 6 h
Counter-ions that a name gives are not always drawn.
Categorize each record by its difference in activity during first hour using lower segment = under -5, middle segment = from -5 up to 8, upper segment = 8 and over

Would you please look over these solved cases?
>  <compound>
CC(C)(C#N)c1cc(Cn2cncn2)cc(C(C)(C)C#N)c1

>  <label_value>
middle segment

$$$$
>  <compound>
COc1cc2nc(N3CCN(C(=O)c4ccco4)CC3)nc(N)c2cc1OC [Prazosin (hydrochloride)]

>  <label_value>
upper segment

$$$$
>  <compound>
CC[C@H](C)C[C@H](C)CCCCCCCCC(=O)N[C@H]1C[C@@H](O)[C@@H](NCCN)NC(=O)[C@@H]2[C@@H](O)CCN2C(=O)[C@H]([C@H](O)CCN)NC(=O)[C@H]([C@H](O)[C@@H](O)c2ccc(O)cc2)NC(=O)[C@@H]2C[C@@H](O)CN2C(=O)[C@H]([C@@H](C)O)NC1=O [Caspofungin (acetate)]

>  <label_value>
lower segment

$$$$
>  <compound>
O=C(c1ccc(OCCN2CCCCC2)cc1)c1c(-c2ccc(O)cc2)sc2cc(O)ccc12 [Raloxifene (hydrochloride)]

>  <label_value>
lower segment

$$$$
>  <compound>
OCCOc1ccc(/C(=C(/CCCl)c2ccccc2)c2ccccc2)cc1

>  <label_value>
lower segment

$$$$
>  <compound>
N#Cc1ccc(Oc2ccc3c(c2)COB3O)cc1

>  <label_value>
lower segment

$$$$
>  <compound>
CCCCC[C@H](O)/C=C/[C@@H]1[C@H]2C/C(=C/CCCC(=O)O)O[C@H]2C[C@H]1O [Prostaglandin I2 (sodium salt)]

>  <label_value>
upper segment

$$$$
>  <compound>
CCN1C(=O)NC(c2ccccc2)C1=O (configuration not stated)

>  <label_value>
middle segment

$$$$
>  <compound>
CN(C)CCOc1ccc(/C(=C(/CCCl)c2ccccc2)c2ccccc2)cc1 [Toremifene (citrate)]

>  <label_value>
upper segment

$$$$
>  <compound>
COc1cc2c(cc1Cc1cccc(Cl)c1F)c(=O)c(C(=O)O)cn2[C@H](CO)C(C)C

>  <label_value>
middle segment

$$$$

Field: class (difference in activity during first hour) — entry: O=C(O)Cc1ccccc1Nc1c(Cl)cccc1Cl [Diclofenac (sodium salt)]
middle segment

Field: class (difference in activity during first hour) — entry: Cc1nnc(C(=O)NC(C)(C)c2nc(C(=O)NCc3ccc(F)cc3)c(O)c(=O)n2C)o1 [Raltegravir (potassium salt)]
middle segment

Field: class (difference in activity during first hour) — entry: CCc1nn(CCCN2CCN(c3cccc(Cl)c3)CC2)c(=O)n1CCOc1ccccc1 [Nefazodone (hydrochloride)]
upper segment

Field: class (difference in activity during first hour) — entry: CCCCCOc1ccc(-c2ccc(-c3ccc(C(=O)N[C@H]4C[C@@H](O)[C@@H](O)NC(=O)[C@@H]5[C@@H](O)[C@@H](C)CN5C(=O)[C@H]([C@@H](C)O)NC(=O)[C@H]([C@H](O)[C@@H](O)c5ccc(O)cc5)NC(=O)[C@@H]5C[C@@H](O)CN5C(=O)[C@H]([C@@H](C)O)NC4=O)cc3)cc2)cc1
lower segment

Field: class (difference in activity during first hour) — entry: O=c1ccn([C@@H]2O[C@H](CO)[C@@H](O)[C@H]2O)c(=O)[nH]1
upper segment

Origin of the recorded values: the supplement of paper PMC10515830
